- assay.name: Pharmacokinetics and bioavailability of [14C]-MDL 73,745 in Beagle dogs
- Format: in vivo, Beagle dog
- condition: dog, in vivo, iv, iv data, dog; read-out: drug clearance
measure: clearance
# output: number + unit

Ask | Please report clearance for the following compound: C[Si](C)(C)c1cccc(C(=O)C(F)(F)F)c1
Reply | 960 mL/min

---

- assay.name: Pharmacokinetics and bioavailability of [14C]-MDL 73,745 in Beagle dogs
- Format: in vivo, Beagle dog
- condition: dog, in vivo, topical or ocular, 10 mg/kg, topical dermal cream, 10 mg/kg; normalized to 2 mg/kg iv; read-out: Mean bioavailability (F)
measure: bioavailability

Ask | Input C[Si](C)(C)c1cccc(C(=O)C(F)(F)F)c1 [MDL 73,745] , output reported bioavailability.
Reply | 7%
